Molecular target: UniProt O75604
Sequence (O75604 whole entry): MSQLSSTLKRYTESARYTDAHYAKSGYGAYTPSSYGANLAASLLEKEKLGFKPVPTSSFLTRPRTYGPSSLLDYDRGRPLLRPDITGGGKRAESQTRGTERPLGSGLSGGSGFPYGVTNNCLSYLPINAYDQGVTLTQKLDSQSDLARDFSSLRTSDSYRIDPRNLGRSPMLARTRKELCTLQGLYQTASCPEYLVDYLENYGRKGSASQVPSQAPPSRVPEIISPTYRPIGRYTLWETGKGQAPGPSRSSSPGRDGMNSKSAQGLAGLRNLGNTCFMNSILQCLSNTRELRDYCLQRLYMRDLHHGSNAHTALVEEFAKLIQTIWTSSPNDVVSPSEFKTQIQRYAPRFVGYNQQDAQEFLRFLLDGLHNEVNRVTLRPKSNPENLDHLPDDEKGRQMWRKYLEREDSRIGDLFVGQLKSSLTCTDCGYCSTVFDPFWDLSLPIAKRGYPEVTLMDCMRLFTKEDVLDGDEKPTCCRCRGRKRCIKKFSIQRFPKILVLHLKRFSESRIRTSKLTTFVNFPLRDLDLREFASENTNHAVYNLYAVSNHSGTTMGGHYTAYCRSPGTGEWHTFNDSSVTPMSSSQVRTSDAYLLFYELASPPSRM
OBSERVATION TYPE: IC50

Kindly state the measured IC50 obtained for `COC(=O)[C@]12CCC(C)(C)C[C@H]1[C@H]1C(=O)C=C3[C@@]4(C)C=C(C#N)C(=O)C(C)(C)[C@@H]4CC[C@@]3(C)[C@]1(C)CC2` with UniProt O75604.
22.3 µM

* * *

Target: USP7 (Homo sapiens, UniProt Q93009)
Sequence (Q93009 whole entry): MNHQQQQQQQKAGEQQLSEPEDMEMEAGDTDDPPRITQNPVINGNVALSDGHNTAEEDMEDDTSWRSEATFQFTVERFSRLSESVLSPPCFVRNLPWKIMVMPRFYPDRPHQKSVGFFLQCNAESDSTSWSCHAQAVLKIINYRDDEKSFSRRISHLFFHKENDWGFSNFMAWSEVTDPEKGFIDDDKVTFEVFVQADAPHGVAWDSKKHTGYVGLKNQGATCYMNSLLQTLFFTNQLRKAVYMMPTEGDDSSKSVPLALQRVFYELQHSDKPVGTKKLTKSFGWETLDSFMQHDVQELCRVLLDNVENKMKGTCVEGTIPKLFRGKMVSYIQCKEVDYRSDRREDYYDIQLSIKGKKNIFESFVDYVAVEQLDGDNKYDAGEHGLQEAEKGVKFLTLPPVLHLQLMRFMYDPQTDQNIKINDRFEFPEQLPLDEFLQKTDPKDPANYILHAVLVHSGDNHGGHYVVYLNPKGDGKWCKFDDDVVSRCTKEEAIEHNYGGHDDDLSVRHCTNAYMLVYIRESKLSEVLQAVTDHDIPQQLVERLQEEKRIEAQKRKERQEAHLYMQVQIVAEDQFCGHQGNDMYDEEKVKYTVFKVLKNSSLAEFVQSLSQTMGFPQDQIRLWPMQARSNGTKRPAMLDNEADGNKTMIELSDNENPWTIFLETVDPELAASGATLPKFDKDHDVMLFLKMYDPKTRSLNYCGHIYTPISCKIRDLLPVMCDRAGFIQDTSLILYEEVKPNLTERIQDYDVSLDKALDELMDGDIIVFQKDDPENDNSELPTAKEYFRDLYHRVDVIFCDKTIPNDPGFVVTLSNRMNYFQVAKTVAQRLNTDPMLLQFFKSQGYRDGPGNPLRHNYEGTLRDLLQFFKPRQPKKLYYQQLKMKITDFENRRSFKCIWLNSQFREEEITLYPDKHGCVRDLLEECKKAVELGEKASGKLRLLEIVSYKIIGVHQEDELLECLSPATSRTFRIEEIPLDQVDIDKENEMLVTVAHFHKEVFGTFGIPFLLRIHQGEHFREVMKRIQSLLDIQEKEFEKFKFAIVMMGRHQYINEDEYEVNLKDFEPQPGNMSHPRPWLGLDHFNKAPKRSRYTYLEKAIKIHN
Assay: biochemical
Design: Ub-AMC hydrolysis by recombinant USP7 (20 nM), 30 min pre-incubation, fluorescence read-out
Details: read-out: % Inhibition at 50 μM
Where a name gives a salt, the structure may show the parent alone.
# inhibition at 50 µM annotations

Here's what some known entries look like.
MOLECULE	MEASUREMENT
CC[C@@H]1C(=O)OC[C@@H]1Cc1cncn1C [Pilocarpine HCl]	< 5%
COC(=O)C1=C(C)NC(C)=C(C(=O)OCCN2CCN(C(c3ccccc3)c3ccccc3)CC2)C1c1cccc([N+](=O)[O-])c1 (centres unmarked)	< 5%
C[C@]12C[C@H](O)[C@H]3[C@@H](CCC4=CC(=O)CC[C@@]43C)[C@@H]1CC[C@@H]2C(=O)CO	< 5%

Form field: reported inhibition at 50 µM of CCN(CC)CCNC(=O)c1ccc(N)cc1 [Procainamide]
< 5%

Form field: reported inhibition at 50 µM of `Cc1cccc(Nc2ccccc2C(=O)O)c1C`
< 5%

Form field: reported inhibition at 50 µM of `C[C@H]1C[C@@H]2[C@H]([C@@H](O)C[C@@]3(C)[C@H]2CC[C@]3(O)C(=O)CO)[C@@]2(C)C=CC(=O)C=C12`
< 5%

Form field: reported inhibition at 50 µM of CC(CN1c2ccccc2Sc2ccccc21)N(C)C (centres unmarked) [Promethazine HCl]
8.9%

Form field: reported inhibition at 50 µM of O=C1CN2Cc3c(ccc(Cl)c3Cl)N=C2N1 [Anagrelide]
8.4%

Form field: reported inhibition at 50 µM of COc1cc2nc(N3CCN(C(=O)C4COc5ccccc5O4)CC3)nc(N)c2cc1OC (centres unmarked) [Doxazosin mesylate]
< 5%

Form field: reported inhibition at 50 µM of `O=C(CCCCCCC(=O)Nc1ccccc1)NO`
< 5%

Form field: reported inhibition at 50 µM of `CC(=O)O[C@H]1C[C@@H]2CC[C@@H]3[C@H](CC[C@@]4(C)[C@H]3C[C@H]([N+]3(C)CCCCC3)[C@@H]4OC(C)=O)[C@@]2(C)C[C@@H]1[N+]1(C)CCCCC1`
< 5%

Form field: reported inhibition at 50 µM of `COC(=O)Nc1nc2cc(C(=O)c3ccccc3)ccc2[nH]1`
< 5%

Form field: reported inhibition at 50 µM of `CC[C@]1(O)C[C@@H]2CN(CCc3c([nH]c4ccccc34)[C@@](C(=O)OC)(c3cc4c(cc3OC)N(C)[C@H]3[C@@](O)(C(N)=O)[C@H](O)[C@]5(CC)C=CCN6CC[C@]43[C@@H]65)C2)C1`
< 5%

Form field: reported inhibition at 50 µM of Cc1ncc([N+](=O)[O-])n1CC(C)O (centres unmarked)
< 5%

* * *

Biological target: USP7 (Homo sapiens)
Assay: biochemical
Design: Ub-AMC hydrolysis by recombinant USP7 (20 nM), 30 min pre-incubation, fluorescence read-out
Settings: read-out: % Inhibition at 50 μM
OBSERVATION TYPE: inhibition at 50 µM

Here's what some known entries look like.
MOLECULE	OBSERVATION TYPE	MEASUREMENT
CCCCCCCCCCCCCCCC(=O)O[C@@H]1[C@@H](O)[C@@H](O)[C@@H]([C@H](NC(=O)[C@@H]2C[C@@H](CCC)CN2C)[C@H](C)Cl)O[C@@H]1SC [Clindamycin palmitate]	inhibition at 50 µM	< 5%
CCCCC(C)(O)C/C=C/[C@H]1[C@H](O)CC(=O)[C@@H]1CCCCCCC(=O)OC (mixture of isomers)	inhibition at 50 µM	< 5%
COc1ccc(C2CNC(=O)C2)cc1OC1CCCC1 (stereo not drawn)	inhibition at 50 µM	< 5%

Form field: reported inhibition at 50 µM of `Cn1c(=O)c2c(ncn2CC2OCCO2)n(C)c1=O`
< 5%

Form field: reported inhibition at 50 µM of CCOC(=O)C1=C(C)NC(C)=C(C(=O)OC)C1c1cccc(Cl)c1Cl (stereo not drawn)
7.9%

Form field: reported inhibition at 50 µM of `NCCCC[C@H](N[C@@H](CCc1ccccc1)C(=O)O)C(=O)N1CCC[C@H]1C(=O)O`
30.5%

Form field: reported inhibition at 50 µM of CCCCC(C#N)(Cn1cncn1)c1ccc(Cl)cc1 (stereo not drawn)
< 5%

* * *

Target: USP7 (Homo sapiens, UniProt Q93009)
Experiment: biochemical
Parameters: Ub-AMC hydrolysis by recombinant USP7 (20 nM), 30 min pre-incubation, fluorescence read-out
Conditions: read-out: % Inhibition at 50 μM
Counter-ions that a name gives are not always drawn.
OBSERVATION TYPE: inhibition at 50 µM

COMPOUND	inhibition at 50 µM
CCCCCN(CCCCC)C(=O)C(CCC(=O)O)NC(=O)c1ccc(Cl)c(Cl)c1 (stereo not drawn) [Lorglumide]	< 5%

Form field: reported inhibition at 50 µM of `COc1c(C)c2c(c(O)c1C/C=C(\C)CCC(=O)O)C(=O)OC2`
< 5%

Form field: reported inhibition at 50 µM of C[C@@H]1CCC[C@H](C)N1NC(=O)c1ccc(Cl)c(S(N)(=O)=O)c1 [Clopamide]
< 5%

Form field: reported inhibition at 50 µM of CN(C)c1ccc(O)c2c1C[C@H]1C[C@H]3[C@H](N(C)C)C(O)=C(C(N)=O)C(=O)[C@@]3(O)C(O)=C1C2=O [Minocycline HCl]
< 5%

Form field: reported inhibition at 50 µM of `Cc1cnc(NC(=O)C2=C(O)c3ccccc3S(=O)(=O)N2C)s1`
< 5%

Form field: reported inhibition at 50 µM of `CO[C@H](C(=O)[C@@H](O)[C@@H](C)O)[C@@H]1Cc2cc3cc(O[C@H]4C[C@@H](O[C@@H]5C[C@@H](O)[C@H](O)[C@@H](C)O5)[C@H](O)[C@@H](C)O4)c(C)c(O)c3c(O)c2C(=O)[C@H]1O[C@H]1C[C@@H](O[C@@H]2C[C@@H](O)[C@@H](O[C@@H]3C[C@](C)(O)[C@H](O)[C@@H](C)O3)[C@@H](C)O2)[C@H](O)[C@@H](C)O1`
< 5%

Form field: reported inhibition at 50 µM of `CC(=O)O[C@H]1C(=O)[C@@]2(C)[C@H]([C@H](OC(=O)c3ccccc3)[C@]3(O)C[C@H](OC(=O)[C@H](O)[C@@H](NC(=O)c4ccccc4)c4ccccc4)C(C)=C1C3(C)C)[C@]1(OC(C)=O)CO[C@@H]1C[C@@H]2O`
26.9%

Form field: reported inhibition at 50 µM of `O=C(O)c1cc(/N=N/c2ccc(S(=O)(=O)Nc3ccccn3)cc2)ccc1O`
< 5%

Form field: reported inhibition at 50 µM of `CC(=O)[C@H]1CC[C@H]2[C@@H]3CC=C4C[C@@H](O)CC[C@]4(C)[C@H]3CC[C@]12C`
< 5%

* * *

# inhibition at 50 µM annotations
Target: USP7 (Homo sapiens, UniProt Q93009)
Assay: biochemical
Set-up: Ub-AMC hydrolysis by recombinant USP7 (20 nM), 30 min pre-incubation, fluorescence read-out
Conditions: read-out: % Inhibition at 50 μM
Structures can show the parent of a compound that is named as a salt.
Just the number please, in %, no unit attached.

In [3]: df
Out[3]:
                                compound  measurement
0  N=C(N)NC(=N)N1CCOCC1 [Moroxydine HCl]         17.2

Let us move to another entry and its inhibition at 50 µM.
Form field: reported inhibition at 50 µM of COC(=O)[C@]12CCC(C)(C)C[C@H]1[C@H]1C(=O)C=C3[C@@]4(C)C=C(C#N)C(=O)C(C)(C)[C@@H]4CC[C@@]3(C)[C@]1(C)CC2 [CDDO-Me]
91.5

* * *

# inhibition at 50 µM annotations
Target: USP7 (Homo sapiens, UniProt Q93009)
Test: biochemical
Design: Ub-AMC hydrolysis by recombinant USP7 (20 nM), 30 min pre-incubation, fluorescence read-out
Settings: read-out: % Inhibition at 50 μM
Structures can show the parent of a compound that is named as a salt.

Here's what some known entries look like.
>>> print(df.to_string())
                                   molecule     observation_type  measurement
0  CN(CCOc1ccc(NS(C)(=O)=O)cc1)CCc1ccc(NS(C)(=O)=O)cc1 [Dofetilide]  inhibition at 50 µM         < 5%
1  Nc1nc2ccc(OC(F)(F)F)cc2s1 [Riluzole HCl]  inhibition at 50 µM         < 5%
2  CCCc1nc(C(C)(C)O)c(C(=O)O)n1Cc1ccc(-c2ccccc2-c2nnn[nH]2)cc1  inhibition at 50 µM         < 5%
3  OCCN1CCN(CCCN2c3ccccc3Sc3ccc(C(F)(F)F)cc32)CC1 [Fluphenazine 2HCl]  inhibition at 50 µM         < 5%
4  O=C(CCNNC(=O)c1ccncc1)NCc1ccccc1 [Nialamide]  inhibition at 50 µM         < 5%

Form field: reported inhibition at 50 µM of `CN(C)CCCOc1nn(Cc2ccccc2)c2ccccc12`
< 5%

Form field: reported inhibition at 50 µM of CC(C)(Oc1ccc(CCNC(=O)c2ccc(Cl)cc2)cc1)C(=O)O [Bezafibrate]
< 5%

Form field: reported inhibition at 50 µM of O=C(NCC1CCCCN1)c1cc(OCC(F)(F)F)ccc1OCC(F)(F)F (stereo not drawn) [Flecainide]
< 5%

Form field: reported inhibition at 50 µM of `C[N+]1(C)[C@@H]2C[C@@H](OC(=O)C(O)(c3cccs3)c3cccs3)C[C@H]1[C@@H]1O[C@@H]12`
< 5%

Data provenance is paper PMC5363571.
